protocol: Kinetic tests in the rat
Format: in vivo
cond: urine, after parenteral administration, read-out: urinary excretion
recordedMetric: dose excreted

Looking for the measured dose excreted of Cc1ncc([N+](=O)[O-])n1CCOC(=O)NCCCCC(N)C(=O)O (stereo not shown) [compound of the invention] , can you help?
< 30%
